In this section, each of the compounds is paired with its reported GI50.
Test system: HOP-62
Method: NCI tumour cell line growth inhibition, 48 h
Activity calls are given as the source filed them. No stated cut-off is given here; in the data, active = GI50 up to about 1.1 µM and inactive = higher.
Quantity measured: GI50

COc1cc(C2S/C(=C/c3ccccc3)C(=O)N2Cc2ccccc2)cc(OC)c1OC (stereo not drawn) | 26.2 µM (inactive)
O=C1N[C@@H](COc2ccc(/C=N/c3ccc(CCc4ccc(/N=C/c5ccc(OC[C@@H]6COC(=O)N6)cc5)cc4)cc3)cc2)CO1 | > 100 µM (inactive)
CN1C(Cl)=NS(=O)(=O)c2ccccc21 | > 100 µM (inactive)
COc1cc(Nc2nc3ccccc3nc2-c2cccs2)cc(OC)c1OC | 39.4 µM (inactive)
CSC(=S)Nc1cccc(C)n1 | > 100 µM (inactive)
COC(=O)C(Br)C1CCc2ccccc21 (stereo not drawn) | > 100 µM (inactive)
CC1=CC[C@@H]2[C@@H](CC[C@@]2(C)O)C(C)(C)[C@H]1CC[C@@H]1[C@@]2(C)CCC(=O)C(C)(C)O[C@@H]2CC[C@]1(C)O | 32.9 µM (inactive)
CCOC(=O)O/N=C1/C(=C2/C(=O)Nc3ccccc32)Nc2ccccc21 | 6.81 µM (inactive)
